- Tested on: soluble CD23
- experiment: Inhibition of release of soluble CD23 from CD23-transfected CHO cells (Procedure 1)
- Format: cell-based
- measurementSetup: CHO cells transfected with alpha form of CD23, 6 hours, ELISA of supernatant; read-out: IC50 (concentration which inhibits the release of soluble CD23 by 50% relative to the control culture)
experimentalReadout: IC50 (µM)

Answered cases to consult:
CC[C@@H](N[C@@H](CC(C)C)C(=O)N[C@@H](Cc1ccc(OC)cc1)C(=O)NC)P(=O)(O)O :: 30
CNC(=O)[C@@H](Cc1ccccc1)NC(=O)[C@H](CC(C)C)[C@H](CSc1cccs1)C(=O)N[O-].[Na+] [P1, Sodium Salt] :: 0.05
CNC(=O)[C@H](Cc1c[nH]c2ccccc12)NC(=O)[C@H](CC(C)C)[C@@H](S)CC(=O)OC(C)C :: 60

I: CNC(=O)[C@@H](Cc1ccc(OC)cc1)NC(=O)C(CC(=O)NO)CC(C)C (stereo partly drawn)
II: CNC(=O)[C@H](Cc1ccc(OC)cc1)NC(=O)[C@H](CC(C)C)[C@@H](S)CC(N)=O
III: CNC(=O)[C@H](Cc1c[nH]c2ccccc12)NC(=O)[C@H](CC(C)C)[C@@H](S)CC(=O)OC
Ask: Please put the entries in order of rising IC50. Enter labels, ranked according to the request.
Reply: III, I, II
(III: 2.2 µM, I: 3.35 µM, II: 60 µM)
